Below, each entry is listed alongside its reported furin cleavage Z-score.
- studySystem: furin, P09958;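 note: purified furin at 1:10 enzyme:substrate in 50 mM HEPES pH 7.5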
- Sequence (P09958 whole entry): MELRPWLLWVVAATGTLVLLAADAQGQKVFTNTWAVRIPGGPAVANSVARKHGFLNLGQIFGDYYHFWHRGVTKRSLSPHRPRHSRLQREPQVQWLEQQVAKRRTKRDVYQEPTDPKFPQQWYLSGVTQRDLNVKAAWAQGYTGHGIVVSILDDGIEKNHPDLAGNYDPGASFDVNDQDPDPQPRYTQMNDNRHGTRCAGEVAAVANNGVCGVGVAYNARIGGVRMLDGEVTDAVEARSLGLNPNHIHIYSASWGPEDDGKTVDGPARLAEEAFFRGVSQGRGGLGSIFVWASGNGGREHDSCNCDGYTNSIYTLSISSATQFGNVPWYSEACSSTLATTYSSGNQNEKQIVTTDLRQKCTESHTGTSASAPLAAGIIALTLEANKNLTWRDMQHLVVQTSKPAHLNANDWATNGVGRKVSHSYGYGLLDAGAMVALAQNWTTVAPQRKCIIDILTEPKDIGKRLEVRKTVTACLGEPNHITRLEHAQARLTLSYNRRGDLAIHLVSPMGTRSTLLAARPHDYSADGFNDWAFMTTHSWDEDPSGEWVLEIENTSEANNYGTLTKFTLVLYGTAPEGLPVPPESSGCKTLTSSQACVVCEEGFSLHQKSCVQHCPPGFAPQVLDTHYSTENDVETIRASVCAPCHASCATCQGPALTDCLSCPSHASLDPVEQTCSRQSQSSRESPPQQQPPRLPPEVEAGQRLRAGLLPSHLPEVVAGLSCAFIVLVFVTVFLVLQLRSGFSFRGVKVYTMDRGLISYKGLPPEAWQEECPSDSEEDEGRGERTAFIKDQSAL
- assayNotes: furin cleavage Z-score vs untreated control; higher = more cleavage, active = 3.5 or more, inactive = 1 or less, 8 variable residues between constant flanks
- recordedConditions: 7.5 min
This is one part of the list. No count for the full screen is at hand.

| monomerSequence | furin cleavage Z-score |
| --- | --- |
| CARTMKSVNAAGNASASA [FS-2466] | 1.07 |
| CARQRKSVNAAGNASASA [FS-2363] | 1.57 |
| CAREKRSEYSAGNASASA [FS-1852] | 3.09 |
